Experiment: Metabolic stability in human liver microsomes assessed as intrinsic clearance per g protein at 10 uM […] in presence of NADPH by LC-MS/MS analysis
Format: ADME, Microsome
METRIC: intrinsic clearance

Query :: Fill in intrinsic clearance for record CCN1CCC[C@@H](Nc2nnc(-c3ccc4occc4c3O)c3c2C2CCC3CC2)C1
Result :: < 12 mL/min

Query :: Fill in intrinsic clearance for record OCCN1CCC[C@@H](Nc2nnc(-c3ccc4occc4c3O)c3c2C2CCC3CC2)C1
Result :: < 12 mL/min

Query :: Fill in intrinsic clearance for record Oc1c(-c2nnc(N[C@@H]3CCC[C@H](O)C3)c3c2C2CCC3CC2)ccc2occc12
Result :: 20 mL/min

Query :: Fill in intrinsic clearance for record Oc1c(-c2nnc(N[C@@H]3CCCC[C@H]3O)c3c2C2CCC3CC2)ccc2occc12
Result :: < 12 mL/min

Query :: Fill in intrinsic clearance for record Oc1c(-c2nnc(N[C@@H]3CCCN(C4CC(F)(F)C4)C3)c3c2C2CCC3CC2)ccc2occc12
Result :: 31 mL/min

Query :: Fill in intrinsic clearance for record CN1C[C@H](F)C[C@@H](Nc2nnc(-c3ccc4occc4c3O)c3c2C2CCC3CC2)C1
Result :: < 12 mL/min

Query :: Fill in intrinsic clearance for record [2H]C([2H])([2H])C([2H])([2H])N1CCC[C@@H](Nc2nnc(-c3ccc4occc4c3O)c3c2C2CCC3CC2)C1
Result :: < 12 mL/min

Query :: Fill in intrinsic clearance for record CC(CO)N1CCC[C@@H](Nc2nnc(-c3ccc4occc4c3O)c3c2C2CCC3CC2)C1 (stereo partly drawn)
Result :: < 12 mL/min

---

Molecular target: NACHT, LRR and PYD domains-containing protein 3 (Mus musculus, UniProt Q8R4B8)
Sequence (Q8R4B8 whole entry, the tested form may be a part): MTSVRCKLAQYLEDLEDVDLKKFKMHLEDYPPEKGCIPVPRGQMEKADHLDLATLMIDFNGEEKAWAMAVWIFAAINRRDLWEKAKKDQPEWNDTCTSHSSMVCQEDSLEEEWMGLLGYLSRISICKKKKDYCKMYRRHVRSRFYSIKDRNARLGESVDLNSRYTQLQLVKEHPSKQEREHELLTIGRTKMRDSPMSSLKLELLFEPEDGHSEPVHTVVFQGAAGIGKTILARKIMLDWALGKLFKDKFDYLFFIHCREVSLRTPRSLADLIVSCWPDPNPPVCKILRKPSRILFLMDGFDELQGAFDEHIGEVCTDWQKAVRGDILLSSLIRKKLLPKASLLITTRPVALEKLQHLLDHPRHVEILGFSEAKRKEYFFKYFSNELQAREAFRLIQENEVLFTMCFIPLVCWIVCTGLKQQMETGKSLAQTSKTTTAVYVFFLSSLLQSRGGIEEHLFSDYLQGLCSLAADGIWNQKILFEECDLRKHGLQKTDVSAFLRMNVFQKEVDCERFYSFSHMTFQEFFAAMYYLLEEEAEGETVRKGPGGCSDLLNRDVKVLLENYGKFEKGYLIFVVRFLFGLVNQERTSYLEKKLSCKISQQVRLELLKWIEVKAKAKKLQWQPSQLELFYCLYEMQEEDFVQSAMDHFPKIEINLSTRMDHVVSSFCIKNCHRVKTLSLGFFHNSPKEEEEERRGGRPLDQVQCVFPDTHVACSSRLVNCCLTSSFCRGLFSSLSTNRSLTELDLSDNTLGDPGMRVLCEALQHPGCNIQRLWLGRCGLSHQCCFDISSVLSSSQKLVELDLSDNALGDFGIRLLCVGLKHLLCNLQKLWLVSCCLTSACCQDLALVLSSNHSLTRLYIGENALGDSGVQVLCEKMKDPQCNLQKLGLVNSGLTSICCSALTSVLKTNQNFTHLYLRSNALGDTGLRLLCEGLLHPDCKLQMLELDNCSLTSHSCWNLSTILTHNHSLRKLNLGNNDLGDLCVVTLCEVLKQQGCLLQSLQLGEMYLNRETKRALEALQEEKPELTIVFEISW
Experiment: Inhibition of NLRP3 inflammasome activation in LPS/nigericin stimulated mouse BMDMs assessed as reduction in IL-1beta release pretreated with LPS for 3 hrs followed by compound addition for 40 mins prior to nigericin stimulation for 40 mins by ELISA
METRIC: IC50 (nM)
Just the number please, in nM, no unit attached.

Query :: Fill in IC50 for record OCCN1CCC[C@@H](Nc2nnc(-c3ccc4occc4c3O)c3c2C2CCC3CC2)C1
Result :: 15.3

---

Target: hERG (KCNH2) (Homo sapiens)
Sequence (Q12809 whole entry): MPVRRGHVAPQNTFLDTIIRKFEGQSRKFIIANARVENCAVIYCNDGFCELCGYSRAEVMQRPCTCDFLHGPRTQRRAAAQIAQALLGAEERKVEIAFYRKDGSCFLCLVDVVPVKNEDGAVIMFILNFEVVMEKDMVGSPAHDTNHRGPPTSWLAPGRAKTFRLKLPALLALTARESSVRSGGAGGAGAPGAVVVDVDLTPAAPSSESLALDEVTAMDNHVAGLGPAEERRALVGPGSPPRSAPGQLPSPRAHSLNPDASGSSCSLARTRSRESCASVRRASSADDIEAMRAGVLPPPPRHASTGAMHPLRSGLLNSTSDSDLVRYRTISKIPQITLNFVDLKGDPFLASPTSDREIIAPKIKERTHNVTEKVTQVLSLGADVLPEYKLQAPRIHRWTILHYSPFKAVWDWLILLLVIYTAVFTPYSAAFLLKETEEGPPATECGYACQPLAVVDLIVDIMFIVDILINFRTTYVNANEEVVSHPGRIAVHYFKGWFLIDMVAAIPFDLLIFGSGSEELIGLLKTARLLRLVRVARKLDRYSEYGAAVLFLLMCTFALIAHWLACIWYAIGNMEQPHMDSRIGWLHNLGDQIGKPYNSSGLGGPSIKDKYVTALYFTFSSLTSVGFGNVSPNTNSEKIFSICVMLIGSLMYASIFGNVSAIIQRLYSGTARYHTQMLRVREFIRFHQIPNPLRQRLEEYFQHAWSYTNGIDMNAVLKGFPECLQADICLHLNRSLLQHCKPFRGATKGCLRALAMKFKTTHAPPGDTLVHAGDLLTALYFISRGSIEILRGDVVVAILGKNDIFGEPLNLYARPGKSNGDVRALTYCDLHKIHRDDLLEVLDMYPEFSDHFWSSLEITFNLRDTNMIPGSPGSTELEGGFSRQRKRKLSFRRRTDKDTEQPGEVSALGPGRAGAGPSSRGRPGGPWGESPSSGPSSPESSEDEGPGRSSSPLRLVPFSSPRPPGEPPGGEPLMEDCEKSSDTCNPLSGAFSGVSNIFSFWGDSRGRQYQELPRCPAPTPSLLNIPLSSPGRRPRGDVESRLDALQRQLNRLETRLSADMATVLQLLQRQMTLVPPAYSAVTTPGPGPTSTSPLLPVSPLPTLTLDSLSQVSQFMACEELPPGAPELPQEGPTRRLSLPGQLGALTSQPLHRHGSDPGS
Assay: Inhibition of human ERG at 20 uM relative to control
Would you mind telling me the reported inhibition at 20 µM of each entry?
Just the number please, in %, no unit attached.

Query :: Fill in inhibition at 20 µM for record CCN1CCC[C@@H](Nc2nnc(-c3ccc4occc4c3O)c3c2C2CCC3CC2)C1
Result :: 85.3

Query :: Fill in inhibition at 20 µM for record Oc1c(-c2nnc(N[C@@H]3CCCN(C4CC(F)(F)C4)C3)c3c2C2CCC3CC2)ccc2sccc12
Result :: 69.4

Query :: Fill in inhibition at 20 µM for record Oc1c(-c2nnc(N[C@@H]3CCCN(C4CC(F)(F)C4)C3)c3c2C2CCC3CC2)ccc2occc12
Result :: -1.03

Query :: Fill in inhibition at 20 µM for record Oc1cc(C(F)(F)F)ccc1-c1nnc(N[C@@H]2CCCN(C3CC(F)(F)C3)C2)c2c1C1CCC2CC1
Result :: 15.5

Query :: Fill in inhibition at 20 µM for record [2H]C([2H])([2H])C([2H])([2H])N1CCC[C@@H](Nc2nnc(-c3ccc4occc4c3O)c3c2C2CCC3CC2)C1
Result :: 85.8

Query :: Fill in inhibition at 20 µM for record Oc1c(-c2nnc(N[C@@H]3CCC[C@H](O)C3)c3c2C2CCC3CC2)ccc2occc12
Result :: 59

Query :: Fill in inhibition at 20 µM for record Oc1cc(C(F)(F)F)ccc1-c1nnc(N[C@@H]2CCCC[C@H]2O)c2ccccc12
Result :: 86

Query :: Fill in inhibition at 20 µM for record Oc1cc(C(F)(F)F)ccc1-c1nnc(N[C@@H]2CCCC[C@H]2O)c2c1C1CCC2CC1
Result :: -1.93

Query :: Fill in inhibition at 20 µM for record Oc1c(-c2nnc(N[C@@H]3CCCC[C@H]3O)c3c2C2CCC3CC2)ccc2occc12
Result :: 60

Query :: Fill in inhibition at 20 µM for record Oc1cc(C(F)(F)F)ccc1-c1nnc(N[C@@H]2CCCC[C@H]2O)c2c1C1CCC2C1 (stereo partly specified)
Result :: 57.7

Query :: Fill in inhibition at 20 µM for record Oc1cc(C(F)(F)F)ccc1-c1nnc(N[C@@H]2CCCC[C@H]2O)c2c1CCCC2
Result :: 84.1

---

Would you mind telling me the reported inhibition at 0.5 µM of each entry?
Experiment: Inhibition of IL-1beta release in PMA-differentiated/ LPS and nigericin stimulated human THP-1 cells at 0.5 uM pretreated with LPS for 3 hrs followed by incubation with compound for 40 mins and later stimulated with nigericin for 40 mins by ELISA
Assay type: functional
Conditions: THP-1, 1.333 h, time 80 min
Just the number please, in %, no unit attached.

Query :: Fill in inhibition at 0.5 µM for record Oc1c(-c2nnc(N[C@@H]3CCCN(C4CC(F)(F)C4)C3)c3c2C2CCC3CC2)ccc2sccc12
Result :: 96.9

Query :: Fill in inhibition at 0.5 µM for record Cc1c(N[C@@H]2CCCC[C@H]2O)nnc(-c2ccc(C(F)(F)F)cc2O)c1C
Result :: 98.3

Query :: Fill in inhibition at 0.5 µM for record Oc1cc(C(F)(F)F)ccc1-c1nnc(N[C@@H]2CCCN(C3CCC3)C2)c2c1C1CCC2C1 (stereo partly specified)
Result :: 97.2

Query :: Fill in inhibition at 0.5 µM for record Oc1cc(C(F)(F)F)ccc1-c1nnc(N[C@@H]2CCCC[C@H]2O)c2ccccc12
Result :: 97.8

Query :: Fill in inhibition at 0.5 µM for record Oc1cc(C(F)(F)F)ccc1-c1nnc(N[C@@H]2CCC[C@H](O)C2)c2c1C1CCC2CC1
Result :: 90.8

Query :: Fill in inhibition at 0.5 µM for record CCN1CCC[C@@H](Nc2nnc(-c3ccc(C(F)(F)F)cc3O)c3c2C2CCC3C2)C1 (stereo partly specified)
Result :: 96.3

Query :: Fill in inhibition at 0.5 µM for record CCN1CCC[C@@H](Nc2nnc(-c3ccc4occc4c3O)c3c2C2CCC3CC2)C1
Result :: 98.3

Query :: Fill in inhibition at 0.5 µM for record Oc1cc(C(F)(F)F)ccc1-c1nnc(N[C@@H]2CCCN(C3CC(F)(F)C3)C2)c2c1C1CCC2CC1
Result :: 97.4

Query :: Fill in inhibition at 0.5 µM for record Oc1cc(Cl)ccc1-c1nnc(N[C@@H]2CCCN(C3CC(F)(F)C3)C2)c2c1C1CCC2CC1
Result :: 95.3

Query :: Fill in inhibition at 0.5 µM for record Oc1c(-c2nnc(N[C@@H]3CCCN(C4CC(F)(F)C4)C3)c3c2C2CCC3CC2)ccc2occc12
Result :: 98.6

Query :: Fill in inhibition at 0.5 µM for record Oc1cc(C(F)(F)F)ccc1-c1nnc(N[C@@H]2CCCN(CC3CC3)C2)c2c1C1CCC2C1 (stereo partly specified)
Result :: 97.2

Query :: Fill in inhibition at 0.5 µM for record CN1C[C@H](F)C[C@@H](Nc2nnc(-c3ccc4occc4c3O)c3c2C2CCC3CC2)C1
Result :: 98.6

Query :: Fill in inhibition at 0.5 µM for record CN1CCC[C@@H](Nc2nnc(-c3ccc(C(F)(F)F)cc3O)c3c2C2CCC3CC2)C1
Result :: 97.4

Query :: Fill in inhibition at 0.5 µM for record Oc1cc(OC(F)(F)F)ccc1-c1nnc(N[C@@H]2CCCN(C3CC(F)(F)C3)C2)c2c1C1CCC2CC1
Result :: 93.2

Query :: Fill in inhibition at 0.5 µM for record CN1CCO[C@H](CNc2nnc(-c3ccc4occc4c3O)c3c2C2CCC3CC2)C1
Result :: 36.5

Query :: Fill in inhibition at 0.5 µM for record Oc1cc(C(F)(F)F)ccc1-c1nnc(N[C@@H]2CCCNC2)c2c1C1CCC2CC1
Result :: 94.3

Query :: Fill in inhibition at 0.5 µM for record CN1CCC[C@@H](Nc2nnc(-c3ccc(C(F)(F)F)cc3O)c3c2C2CCC3C2)C1 (stereo partly specified)
Result :: 96.9

Query :: Fill in inhibition at 0.5 µM for record Oc1cc(C(F)(F)F)ccc1-c1nnc(N[C@@H]2CCCC[C@H]2O)c2c1CCCC2
Result :: 98.3

Query :: Fill in inhibition at 0.5 µM for record Oc1cc(C(F)(F)F)ccc1-c1nnc(N[C@@H]2CCCN(C3CCOC3)C2)c2c1C1CCC2CC1 (stereo partly specified)
Result :: 96.8

Query :: Fill in inhibition at 0.5 µM for record Oc1cc(C(F)(F)F)ccc1-c1nnc(N[C@@H]2CCCN(CC(F)F)C2)c2c1C1CCC2CC1
Result :: 73.8

Query :: Fill in inhibition at 0.5 µM for record CC(CO)N1CCC[C@@H](Nc2nnc(-c3ccc4occc4c3O)c3c2C2CCC3CC2)C1 (stereo partly specified)
Result :: 99

Query :: Fill in inhibition at 0.5 µM for record [2H]C([2H])([2H])C([2H])([2H])N1CCC[C@@H](Nc2nnc(-c3ccc4occc4c3O)c3c2C2CCC3CC2)C1
Result :: 98.5

Query :: Fill in inhibition at 0.5 µM for record Oc1cc(C(F)(F)F)ccc1-c1nnc(N[C@@H]2CCCC[C@H]2O)c2c1C1CCC2C1 (stereo partly specified)
Result :: 95.6

Query :: Fill in inhibition at 0.5 µM for record CC(C)(F)CN1CCC[C@@H](Nc2nnc(-c3ccc(C(F)(F)F)cc3O)c3c2C2CCC3CC2)C1
Result :: 95.8

Query :: Fill in inhibition at 0.5 µM for record OCCN1CCC[C@@H](Nc2nnc(-c3ccc(C(F)(F)F)cc3O)c3c2C2CCC3CC2)C1
Result :: 99.2

Query :: Fill in inhibition at 0.5 µM for record Oc1cc(C(F)(F)F)ccc1-c1nnc(N[C@@H]2CCCN(C3COC3)C2)c2c1C1CCC2CC1
Result :: 96.5

Query :: Fill in inhibition at 0.5 µM for record Oc1c(-c2nnc(N[C@@H]3CCOC3)c3c2C2CCC3CC2)ccc2occc12
Result :: 30

Query :: Fill in inhibition at 0.5 µM for record OCCN1CCC[C@@H](Nc2nnc(-c3ccc4occc4c3O)c3c2C2CCC3CC2)C1
Result :: 98.9

Query :: Fill in inhibition at 0.5 µM for record Oc1cc(C(F)(F)F)ccc1-c1nnc(N[C@@H]2CCCC[C@H]2O)c2c1C1CCC2CC1
Result :: 85.8

Query :: Fill in inhibition at 0.5 µM for record Oc1cc(C(F)(F)F)ccc1-c1nnc(N[C@@H]2CCCN(C3CCC3)C2)c2c1C1CCC2CC1
Result :: 97.1

Query :: Fill in inhibition at 0.5 µM for record N#Cc1ccc(-c2nnc(N[C@@H]3CCCN(C4CC(F)(F)C4)C3)c3c2C2CCC3CC2)c(O)c1
Result :: 91.5

Query :: Fill in inhibition at 0.5 µM for record Oc1c(-c2nnc(N[C@@H]3CCCC[C@H]3O)c3c2C2CCC3CC2)ccc2occc12
Result :: 96.3

Query :: Fill in inhibition at 0.5 µM for record CN1CC[C@@H](Nc2nnc(-c3ccc(C(F)(F)F)cc3O)c3c2C2CCC3C2)C1 (stereo partly specified)
Result :: 32.7

Query :: Fill in inhibition at 0.5 µM for record CN1CCC[C@H](Nc2nnc(-c3ccc(C(F)(F)F)cc3O)c3c2C2CCC3C2)C1 (stereo partly specified)
Result :: 3.09

Query :: Fill in inhibition at 0.5 µM for record Cc1ccc(-c2nnc(N[C@@H]3CCCN(C4CC(F)(F)C4)C3)c3c2C2CCC3CC2)c(O)c1
Result :: 96.6

Query :: Fill in inhibition at 0.5 µM for record Oc1cc(C(F)(F)F)ccc1-c1nnc(N[C@@H]2CCCN(C3CC(F)(F)C3)C2)c2c1C1CCC2C1 (stereo partly specified)
Result :: 96.3
